Exercise: for every item that follows, state its recorded inhibition.
# assayed-target: Pteridine reductase, putative (Trypanosoma brucei)
# method: Inhibition of Trypanosoma brucei pteridine reductase 1 at 100 uM
One number for each entry, in %.

Known inhibition results, listed for orientation:
# molecule, assayed-target, inhibition [%]
records = [
    ("O=C(Nc1c[nH]c(=O)[nH]c1=O)c1ccccc1F", "Pteridine reductase, putative (Trypanosoma brucei)", 7.9),
    ("CC(C)CSc1n[nH]c(N)n1", "Pteridine reductase, putative (Trypanosoma brucei)", 0.9),
    ("Nc1nnc(SCC(=O)NCc2ccc3c(c2)OCO3)[nH]1", "Pteridine reductase, putative (Trypanosoma brucei)", 38.5),
    ("Nc1nc(-c2ccncc2)cs1", "Pteridine reductase, putative (Trypanosoma brucei)", 31.3),
    ("CC(Nc1c[nH]c(=O)[nH]c1=O)c1ccccc1 (configuration not stated)", "Pteridine reductase, putative (Trypanosoma brucei)", 17.4),
    ("O=c1[nH]c(=O)c2c(-c3ccccc3)csc2[nH]1", "Pteridine reductase, putative (Trypanosoma brucei)", 36.3),
    ("Nc1nc(CNC(=O)c2ccccc2)n[nH]1", "Pteridine reductase, putative (Trypanosoma brucei)", 10.7),
    ("Nc1nc2ccc(C(=O)N3CCCCC3)cc2s1", "Pteridine reductase, putative (Trypanosoma brucei)", 49.9),
]

Give measured inhibition for every item shown.
1. O=c1[nH]cc(/N=C/c2ccc(Br)cc2)c(=O)[nH]1
2. Cc1[nH]c(=O)[nH]c(=O)c1Cc1ccccc1
3. c1ccc(CCNc2ncnc3[nH]cnc23)cc1
4. Oc1ncc(/N=C/c2ccccc2)c(O)n1

A)
1. 4.5
2. -0.3
3. 66.4
4. 22.8
